Just for reference, patent US8003649B2 is where these values come from.

# target: isolated rat AR-LBD (Rattus norvegicus, UniProt P15207)
# Construct: purchased Invitrogen PV4293
# Sequence (P15207 651-882 limits assumed): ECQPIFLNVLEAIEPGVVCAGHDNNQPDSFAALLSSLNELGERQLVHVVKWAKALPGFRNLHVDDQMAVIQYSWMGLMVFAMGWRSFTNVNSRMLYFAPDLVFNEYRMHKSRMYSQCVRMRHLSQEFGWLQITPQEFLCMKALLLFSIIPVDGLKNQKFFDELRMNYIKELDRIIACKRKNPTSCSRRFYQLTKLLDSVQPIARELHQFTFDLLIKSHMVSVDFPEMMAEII
# experimental.protocol: Androgen Receptor Ligand Binding Domain competitive binding assay, Fluorescence Polarisation (PolarScreen)
# study.conditions: 50% reduction in tracer compound binding to AR-LBD; read-out: Androgen Receptor FP Ligand-Binding Assay IC50/μM
# Method: b) Androgen Receptor—Ligand Binding Domain Competitive Binding Assay The ability of compounds to bind to isolated Androgen Receptor Ligand binding domain (AR-LBD) was assessed in competition assays using either a Fluorescence Polarisation (FP) or a LanthaScreen™ Time-Resolved Fluorescence Resonance Energy Transfer (TR-FRET) detection end-point. […]
For each of the molecules below, state its IC50.
Record the value in µM, omitting the unit from your answer.

Entry FC(F)(F)c1ccccc1CN1CCCN(c2ccc3nnc(C(F)(F)F)n3n2)CC1 : IC50 on isolated rat AR-LBD (Rattus norvegicus, UniProt P15207) = 16.3

Per the reported isolated rat AR-LBD (Rattus norvegicus, UniProt P15207) data, FC(F)(F)Cc1nnc2ccc(N3CCN(C(c4ccccc4)c4ccccc4)CC3)nn12 has IC50 of 20.2

isolated rat AR-LBD (Rattus norvegicus, UniProt P15207) data for Cc1ccccc1CN1CCCN(c2ccc3nnc(C(F)(F)F)n3n2)CC1 ; its IC50: 14.4

The value of IC50 recorded for CS(=O)(=O)c1ccc(CN2CCCN(c3ccc4nnc(C(F)(F)F)n4n3)CC2)cc1 when tested on isolated rat AR-LBD (Rattus norvegicus, UniProt P15207) reads 6.09

// molecule FC(F)(F)c1nnc2ccc(N3CC4CC3CN4Cc3ccccc3)nn12 (centres unmarked) , assay isolated rat AR-LBD (Rattus norvegicus, UniProt P15207), IC50 value: 19.6
